Origin of the recorded values: the Deep4Chem optical property database

# PROCEDURE_DETAILS: photoluminescence quantum yield (fraction); solvent given as SMILES
# MEASUREMENT_PARAMETERS: in CCO
VALUE_KIND: photoluminescence quantum yield

// worked examples, photoluminescence quantum yield included
>>> value("CSc1sc(C(=O)c2ccccc2)c2nn[nH]c(=O)c12")
0.0088
>>> value("OB(O)c1ccc(-c2ccc(N(c3ccccc3)c3ccccc3)cc2)cc1")
0.81
>>> value("Cn1nc(-c2ccccc2)c2n[nH]nc2/c1=N\\c1ccccn1")
0.06
>>> value("O=C1c2ccccc2-c2ccc(N3CCN(c4ccccc4)CC3)c3cccc1c23")
0.007
>>> value("O=Cc1cc(O)ccc1O")
0.04
>>> value("Cc1ccccc1-c1c2ccc(=[N+]3CCCCC3)cc-2oc2cc(N3CCCCC3)ccc12")
0.28
>>> value("CNc1cc2nc3cc(Cl)c(Cl)cc3nc2cc1NC")
0.14
>>> value("Cn1nc(-c2ccccc2)c2n[nH]nc2c1=O")
0.21

Entry `O=C(c1ccc(N(c2ccccc2)c2ccccc2)cc1)[C@H]1[C@H](c2ccccc2)C[C@](O)(c2ccccn2)C[C@]1(O)c1ccccn1` has what photoluminescence quantum yield?
0.01

Field request: photoluminescence quantum yield | item: CC/[NH+]=c1\cc2oc3cc(NCCC(=O)NC(C)C(=O)OC)c4ccccc4c3nc-2cc1C (stereo not given)
0.39

* * *

# PROCEDURE_DETAILS: photoluminescence quantum yield (fraction); solvent given as SMILES
# MEASUREMENT_PARAMETERS: in CCO
The threshold is inclusive: photoluminescence quantum yield of exactly 0.3 counts as class 1; values below receive class 0.

Recorded results for 2 compounds are shown here.
>>> classification("COC(=O)c1nc(-c2ccccc2)oc1C")
"class 1"
>>> classification("CC/[NH+]=c1\\cc2oc3cc(NCCNC(=O)C(NC(=O)OC(C)(C)C)C(C)C)c4ccccc4c3nc-2cc1C (stereo not given)")
"class 1"

Determine whether measured photoluminescence quantum yield meets or exceeds 0.3 for `CN(C)c1ccc(/C=C/c2ccccn2)cc1`
class 0

Has `COc1ccccc1-c1c2ccc(=[N+]3CCCCC3)cc-2oc2cc(N3CCCCC3)ccc12` a recorded photoluminescence quantum yield greater than or equal to 0.3?
class 1

Record `O=C([O-])c1ccccc1C1=c2cc3c4c(c2Oc2c1cc1c5c2CCCN5CCC1)CCC[N+]=4CCC3` ; criterion: photoluminescence quantum yield no lower than 0.3. Met?
class 1

* * *

# PROCEDURE_DETAILS: photoluminescence quantum yield (fraction); solvent given as SMILES
# MEASUREMENT_PARAMETERS: in ClCCl
VALUE_KIND: photoluminescence quantum yield
Respond numerically, and do not add a unit to the figure.

Sample records with photoluminescence quantum yield:
>>> value("CC(C)(C)NC(=O)c1ccc(F)c2ccc3c4ccccc4c4ccccc4c3c12")
0.04
>>> value("CC(C)[Si](C#Cc1c2cc3ccccc3cc2c(C#Cc2ccc(C(F)(F)F)cc2)c2cc3ccccc3cc12)(C(C)C)C(C)C")
0.06
>>> value("CCCCN(CCCC)c1ccc2c(c1)C#CC#Cc1cc(N(CCCC)CCCC)ccc1C#Cc1cc(c3cc1C#Cc1ccc(C(F)(F)F)cc1C#CC#Cc1cc(C(F)(F)F)ccc1C#C3)C#C2")
0.15
>>> value("CCCCc1ccc2ccc3c(CCCC)cc(CCCC)c4ccc1c2c34")
0.43
>>> value("N#Cc1ccc(/C=C/c2ncc(-c3ccccc3)o2)cc1")
0.65

# photoluminescence quantum yield lookup, item `CCN(CC)c1ccc([N+]2=Cc3ccc4c5c(ccc4c3O[B-]2(c2ccccc2)c2ccccc2)C=[N+](c2ccc(N(CC)CC)cc2)[B-](c2ccccc2)(c2ccccc2)O5)cc1`
0.29

State the recorded photoluminescence quantum yield for this entry: `Cc1c2ccccc2c(C2=C3C=CC=[N+]3[B-](F)(F)n3cccc32)c2ccccc12`
0.005

Item under review: `COc1ccc(-c2cnc(-c3cccnc3)o2)cc1OC` . Reported photoluminescence quantum yield?
0.98

Consider the compound `CCCCn1c(-c2ccc(-c3nnc(-c4ccccc4)o3)cc2)nc2c3ccccc3c3ccccc3c21` and give its measured photoluminescence quantum yield.
0.61

Which measured photoluminescence quantum yield value corresponds to `c1cc2c3c(c1)ccc1[n+]3[B-]3(Oc4cccc5ccc6[n+](c45)[B-](O2)(O3)n2c-6cc3c4ccccc4c4ccccc4c32)n2c-1cc1c3ccccc3c3ccccc3c12` ?
0.89

Tell me the measured photoluminescence quantum yield of `F[B-]1(F)n2c(c(-c3ccccc3)c(-c3cccs3)c2-c2ccccc2)N=C2C(c3ccccc3)=C(c3cccs3)C(c3ccccc3)=[N+]21` , please.
0
